- target_or_test_system: B2 bradykinin receptor (Homo sapiens, UniProt P30411)
- test_description: Antagonist activity at B2 receptor in human HF15 cells assessed as inhibition of bradykinin-induced calcium mobilization
- Assay type: functional, cell-based
result_type: IC50

Cc1cc(-n2ccnc2C)c2cccc(OCc3c(Cl)cncc3Cl)c2n1	1300 nM
CC(=O)NCc1cncc(Cl)c1COc1cccc2c(-c3ccnn3C)cc(C)nc12	24 nM
Cc1cc(-c2ccnn2C)c2cccc(OCc3c(Cl)cncc3SCC(=O)N(C)C)c2n1	24 nM
Cc1cc(-n2cccn2)c2cccc(OCc3c(Cl)cncc3Cl)c2n1	920 nM
Cc1cc(-c2ccnn2C)c2cccc(OCc3c(Cl)cncc3CNS(C)(=O)=O)c2n1	110 nM
Cc1cc(-c2ccnn2C)c2cccc(OCc3c(Cl)cncc3COc3ccccn3)c2n1	260 nM
Cc1cc(-c2conc2C)c2cccc(OCc3c(Cl)cncc3Cl)c2n1	3800 nM
Cc1cc(-c2ccnn2C)c2cccc(OCc3c(C)ccnc3CNC(=O)C(C)C)c2n1	3.8 nM
Cc1cc(-c2csnc2C)c2cccc(OCc3c(Cl)cncc3Cl)c2n1	330 nM
Cc1cc(-c2n[nH]cc2C)c2cccc(OCc3c(Cl)cncc3Cl)c2n1	390 nM

* * *

- test_description: Displacement of [3H]bradykinin from B2 receptor N107A mutant
pIC50: −log10 of the molar value.
result_type: pIC50

Cc1cc(-c2ccnn2C)c2cccc(OCc3c(Cl)cncc3Sc3nccs3)c2n1	5.64

* * *

- test_description: Aqueous solubility of the compound
- Assay type: physicochemical
- stated_conditions: aqueous solution
Listed next: entries and their corresponding solubility.
result_type: solubility

Cc1ccc2cccc(OCc3c(Cl)cccc3Cl)c2n1	< 1 µM
Cc1cc(-n2ccnc2)c2cccc(OCc3c(Cl)cncc3Cl)c2n1	> 50 µM

* * *

- target_or_test_system: B2 bradykinin receptor (Homo sapiens, UniProt P30411)
- test_description: Displacement of [3H]bradykinin from human recombinant B2 receptor expressed in HEK293 cells
- Format: cell-based
result_type: IC50 (µM)

Cc1cc(-c2ccnn2C)c2cccc(OCc3c(Cl)cncc3[S+]([O-])CC(=O)N(C)C)c2n1 (stereo not given)	0.037
Cc1cc(-c2ccnn2C)c2cccc(OCc3c(Cl)cncc3CNS(C)(=O)=O)c2n1	0.014
Cc1cc(-c2n[nH]cc2C)c2cccc(OCc3c(Cl)cncc3Cl)c2n1	0.11
Cc1cc(-c2ccnn2C)c2cccc(OCc3c(C)ccnc3CNC(=O)C(C)C)c2n1	0.0054
Cc1cc(-c2[nH]ncc2C)c2cccc(OCc3c(C)ccnc3Cn3cccc(C(F)(F)F)c3=O)c2n1	0.0087

* * *

- target_or_test_system: B2 bradykinin receptor (Homo sapiens)
- test_description: Displacement of [3H]bradykinin from human recombinant B2 receptor expressed in HEK293 cells
- Type: cell-based
Flag rule - IC50 less than 20 nM flags 1; the remaining entries get -1.

Cc1cc(-c2ccnn2C)c2cccc(OCc3c(Cl)cncc3Sc3nccn3C)c2n1	1
CC(=O)OCc1cncc(Cl)c1C(=O)c1cccc2c(-c3ccnn3C)cc(C)nc12	1
Cc1cc(-c2cncs2)c2cccc(OCc3c(Cl)cncc3Cl)c2n1	-1
Cc1cc(-c2ccnn2C)c2cccc(OCc3c(Cl)cncc3CCC(N)=O)c2n1	-1
Cc1cc(-c2ccnn2C)c2cccc(OCc3c(Cl)cncc3OCC(=O)N(C)C)c2n1	1
Cc1cc(-c2cn[nH]c2C)c2cccc(OCc3c(Cl)cncc3Cl)c2n1	-1
Cc1cc(C)c2cccc(OCc3c(Cl)ccc(S(=O)(=O)NC4(C(=O)N5CCN(C(=O)[C@@H](N)CCC[N+](C)(C)C)CC5)CCOCC4)c3Cl)c2n1 [FASITIBANT CHLORIDE]	1
Cc1cc(-c2ncc(C)n2C)c2cccc(OCc3c(Cl)cncc3Cl)c2n1	-1
Cc1cc(-c2ccnn2C)c2cccc(OCc3c(C)ccnc3Cn3cccc(C(F)(F)F)c3=O)c2n1	1

* * *

- target_or_test_system: B2 bradykinin receptor (Homo sapiens)
- test_description: Displacement of [3H]bradykinin from human recombinant B2 receptor expressed in HEK293 cells
- Type: cell-based
pIC50: −log10 of the molar value.
Response key: Criterion met means pIC50 >= 7; Criterion not met means pIC50 < 7.

Cc1cc(-c2scnc2Cl)c2cccc(OCc3c(Cl)cncc3Cl)c2n1	Criterion not met
Cc1cc(-c2ccnn2C)c2cccc(OCc3c(Cl)cncc3Sc3nccs3)c2n1	Criterion met
Cc1cc(-c2nscc2C)c2cccc(OCc3c(Cl)cncc3Cl)c2n1	Criterion met
Cc1cc(-c2ccnn2C)c2cccc(OCc3c(Cl)cncc3COC(=O)N(C)C)c2n1	Criterion met
Cc1cc(-c2ncsc2Cl)c2cccc(OCc3c(Cl)cncc3Cl)c2n1	Criterion not met

* * *

- target_or_test_system: B2 bradykinin receptor (Homo sapiens, UniProt P30411)
- test_description: Displacement of [3H]bradykinin from human recombinant B2 receptor expressed in HEK293 cells
- Format: cell-based
result_type: log10 of IC50 (log10 of the value in nM)

Cc1cc(-c2cc[nH]n2)c2cccc(OCc3c(Cl)cncc3Cl)c2n1	2.49
Cc1cc(-c2ccnn2C)c2cccc(OCc3c(Cl)cncc3Cl)c2n1	1.70
Cc1cc(-c2ccnn2C)c2cccc(OCc3c(Cl)cncc3SCC(=O)N(C)C)c2n1	0.88
Cc1cc(-c2ccnn2C)c2cccc(OCc3ccncc3Cl)c2n1	2.71
Cc1cc(-c2csnc2C)c2cccc(OCc3c(Cl)cncc3Cl)c2n1	2.30
Cc1cc(-c2ncsc2Cl)c2cccc(OCc3c(C)ccnc3Cn3cccc(C(F)(F)F)c3=O)c2n1	1.00
Cc1cc(-c2nncn2C)c2cccc(OCc3c(Cl)cncc3Cl)c2n1	3.85
Cc1cc(-c2nccn2C)c2cccc(OCc3c(Cl)cncc3Cl)c2n1	1.95
Cc1cc(-c2ccnn2C)c2cccc(OCc3c(Cl)cncc3COc3ccccn3)c2n1	2.15
Cc1cc(-c2ocnc2C)c2cccc(OCc3c(Cl)cncc3Cl)c2n1	3.78
Cc1ccc2cccc(OCc3c(Cl)cncc3Cl)c2n1	3.72
Cc1cc(-c2scnc2C)c2cccc(OCc3c(Cl)cncc3Cl)c2n1	2.04
Cc1cc(-c2cscn2)c2cccc(OCc3c(Cl)cncc3Cl)c2n1	1.90
Cc1cc(-c2ncnn2C)c2cccc(OCc3c(Cl)cncc3Cl)c2n1	1.83
CC(=O)NCc1cncc(Cl)c1COc1cccc2c(-c3ccnn3C)cc(C)nc12	1.08
Cc1cc(-c2ccnn2C)c2cccc(OCc3c(Cl)cncc3CCC(=O)N(C)C)c2n1	1.56
Cc1cc(-c2ccnn2C)c2cccc(OCc3c(Cl)cncc3Cn3cccc(C(F)(F)F)c3=O)c2n1	0.60
Cc1cc(-n2ccnc2)c2cccc(OCc3c(Cl)cncc3Cl)c2n1	2.76
Cc1cc(-c2ccnn2C)c2cccc(OCc3c(Cl)cncc3CNC(=O)C(C)C)c2n1	0.89
Cc1cc(-c2conc2C)c2cccc(OCc3c(Cl)cncc3Cl)c2n1	2.63
Cc1cc(-c2ccnn2C)c2cccc(OCc3c(Cl)cncc3Cn3ccccc3=O)c2n1	0.71

* * *

- target_or_test_system: B2 bradykinin receptor (Homo sapiens, UniProt P30411)
- Sequence (P30411 whole entry): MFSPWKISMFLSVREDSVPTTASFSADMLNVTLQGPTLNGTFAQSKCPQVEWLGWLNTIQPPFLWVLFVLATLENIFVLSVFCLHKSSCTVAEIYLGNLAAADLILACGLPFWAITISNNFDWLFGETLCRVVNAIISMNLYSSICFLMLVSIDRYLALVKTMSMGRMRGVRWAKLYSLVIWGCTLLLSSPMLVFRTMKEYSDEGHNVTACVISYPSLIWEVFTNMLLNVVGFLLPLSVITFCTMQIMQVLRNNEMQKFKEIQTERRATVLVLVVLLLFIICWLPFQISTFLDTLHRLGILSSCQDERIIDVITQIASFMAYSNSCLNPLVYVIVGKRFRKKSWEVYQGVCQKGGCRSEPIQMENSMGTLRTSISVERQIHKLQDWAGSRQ
- test_description: Antagonist activity at B2 receptor in human HF15 cells assessed as inhibition of bradykinin-induced calcium mobilization
- Type: functional, cell-based
pIC50: −log10 of the molar value.
Listed next: entries and their corresponding pIC50.
result_type: pIC50

Cc1cc(-c2ncsc2C)c2cccc(OCc3c(Cl)cncc3Cl)c2n1	6.40
Cc1cc(-c2ccnn2C)c2cccc(OCc3c(Cl)cncc3Cn3ccccc3=O)c2n1	8.44
Cc1cc(-c2ccnn2C)c2cccc(OCc3c(Cl)cncc3OCC(=O)N(C)C)c2n1	7.04
Cc1cc(-c2cc[nH]n2)c2cccc(OCc3c(Cl)cncc3Cl)c2n1	6.46
Cc1cc(-c2ncc(C)n2C)c2cccc(OCc3c(Cl)cncc3Cl)c2n1	5.47
Cc1cc(-c2nscc2C)c2cccc(OCc3c(Cl)cncc3Cl)c2n1	7.15
Cc1cc(-c2ccnn2C)c2cccc(OCc3c(Cl)cncc3[S+]([O-])CC(=O)N(C)C)c2n1 (stereo not given)	7.12
Cc1cc(-c2ccnn2C)c2cccc(OCc3c(C)ccnc3Cn3cccc(C(F)(F)F)c3=O)c2n1	9.27
Cc1cc(-c2ccnn2C)c2cccc(OCc3c(Cl)cncc3CCC(=O)N(C)C)c2n1	7.14
Cc1cc(-c2cn[nH]c2C)c2cccc(OCc3c(Cl)cncc3Cl)c2n1	5.20
